Biological target: PAD4 (Homo sapiens, UniProt Q9UM07)
Construct: made in house
Sequence (Q9UM07 whole entry): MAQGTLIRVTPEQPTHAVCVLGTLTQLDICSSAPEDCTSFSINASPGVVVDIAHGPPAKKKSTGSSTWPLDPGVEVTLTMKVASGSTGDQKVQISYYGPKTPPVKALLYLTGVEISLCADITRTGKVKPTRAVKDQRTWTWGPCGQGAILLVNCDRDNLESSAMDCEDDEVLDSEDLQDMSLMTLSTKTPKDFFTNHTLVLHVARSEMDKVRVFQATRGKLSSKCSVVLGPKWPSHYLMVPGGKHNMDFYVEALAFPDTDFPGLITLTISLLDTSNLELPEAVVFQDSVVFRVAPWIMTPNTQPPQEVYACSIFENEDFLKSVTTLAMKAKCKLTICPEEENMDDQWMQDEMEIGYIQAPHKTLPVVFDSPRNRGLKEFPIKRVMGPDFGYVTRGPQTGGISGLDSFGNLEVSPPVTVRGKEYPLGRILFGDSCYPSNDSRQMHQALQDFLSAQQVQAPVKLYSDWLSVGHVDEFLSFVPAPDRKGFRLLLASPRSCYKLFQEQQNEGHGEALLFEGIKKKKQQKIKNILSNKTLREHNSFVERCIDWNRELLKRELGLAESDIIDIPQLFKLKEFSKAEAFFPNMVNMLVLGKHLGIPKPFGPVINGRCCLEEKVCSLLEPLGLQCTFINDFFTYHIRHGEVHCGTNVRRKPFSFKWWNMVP
Assay: Standard PAD4 assay (citrulline formation from BAEE), IC50 studies
Format: biochemical
Conditions: standard assay
assay.readout: pIC50
Please note pIC50 is a logarithmic value: minus log10 of concentration in mol/L. Answer with that number alone.

Request - read-out pIC50 | tested on PAD4 (Homo sapiens, UniProt Q9UM07) | compound `CN(C)c1ccc(O)c2c1C[C@H]1C[C@H]3[C@H](N(C)C)C(O)=C(C(N)=O)C(=O)[C@@]3(O)C(O)=C1C2=O`
3.21

---

Target: PAD4 (Homo sapiens, UniProt Q9UM07)
Construct: made in house
Assay: ABPP-based inhibitor screen: competition with RFA for labelling of PAD4, gel fluorescence
Type: binding
Settings: compound 2.5 mM, RFA 10 μM, PAD4 2 μM, 30 min at 37° C.
assay.readout: decrease in fluorescence intensity of PAD4

Worked examples, 4 compounds total:
>  <compound>
CN(Cc1cnc2nc(N)nc(N)c2n1)c1ccc(C(=O)N[C@@H](CCC(=O)O)C(=O)O)cc1 [Methotrexate]

>  <data.value>
Intermediate effects

$$$$
>  <compound>
Nc1ccc(S(=O)(=O)Nc2ccccn2)cc1

>  <data.value>
little to no decrease

$$$$
>  <compound>
CN(C)c1ccc(O)c2c1C[C@H]1C[C@H]3[C@H](N(C)C)C(O)=C(C(N)=O)C(=O)[C@@]3(O)C(O)=C1C2=O

>  <data.value>
strong decrease

$$$$
>  <compound>
COc1cc(Cc2cnc(N)nc2N)cc(OC)c1OC

>  <data.value>
little to no decrease

$$$$

Give its decrease in fluorescence intensity of PAD4 value. Item: CCCC1CC(C(=O)NC(C(C)Cl)C2OC(SC)C(O)C(O)C2O)N(C)C1 (stereo not shown)
Intermediate effects

Looking for the measured decrease in fluorescence intensity of PAD4 of `[H]/N=C(/N)N[C@H]1[C@H](O)[C@@H](O)[C@H](O[C@@H]2O[C@@H](C)[C@](O)(C=O)[C@H]2O[C@@H]2O[C@@H](CO)[C@H](O)[C@@H](O)[C@@H]2NC)[C@@H](N/C(N)=N\[H])[C@@H]1O` , can you help?
strong decrease

Requested field: decrease in fluorescence intensity of PAD4. Item: `Nc1ccc(O)c(C(=O)O)c1`
little to no decrease

---

Molecular target: PAD4 (Homo sapiens, UniProt Q9UM07)
Construct: made in house
Assay: Inhibition studies: kinetic analysis of PAD4 activity versus BAEE concentration
Format: biochemical
Conditions: BAEE 0-20 mM, 0.2 μM PAD4; read-out: Kii
assay.readout: Ki
Give me the value, and tack the unit on after it.

// returns reported Ki for input CN(C)c1ccc(O)c2c1C[C@H]1C[C@H]3[C@H](N(C)C)C(O)=C(C(N)=O)C(=O)[C@@]3(O)C(O)=C1C2=O [Minocycline]
630 µM

---

Biological target: PAD4 (Homo sapiens, UniProt Q9UM07)
Construct: made in house
Test: Standard PAD4 assay (citrulline formation from BAEE), IC50 studies
Format: biochemical
Details: 1 mM BAEE, 0.2 μM PAD4, 15 min pre-incubation at 37° C.
List of IC50 values.

>  <compound>
Cn1cnc([N+](=O)[O-])c1Sc1ncnc2nc[nH]c12

>  <IC50>
> 7.5 mM

$$$$
>  <compound>
Nc1ccc(O)c(C(=O)O)c1

>  <IC50>
> 10 mM

$$$$
>  <compound>
CN(Cc1cnc2nc(N)nc(N)c2n1)c1ccc(C(=O)N[C@@H](CCC(=O)O)C(=O)O)cc1 [Methotrexate]

>  <IC50>
> 10 mM

$$$$

Report IC50 for `Nc1ccc(S(=O)(=O)Nc2ccccn2)cc1` tested on PAD4 (Homo sapiens, UniProt Q9UM07).
> 10 mM
